Source: patent US9359373B1

Tested on: HL60
runDescription: MTT cell viability, HL60
Assay type: cell-based, human
statedConditions: Homo sapiens, HL-60; MTT, 48 hours, Mean ± SD; read-out: Growth Inhibition IC50 HL-60
Entries and their measured IC50 follow.
parameterMeasured: IC50 (µM)

INSERT INTO results (molecule, parametermeasured, limitsign, observed) VALUES
  ('CC(C)=CCCC(C)=CCCC(C)=CCON1C(=O)C2C3CCC(O3)C2C1=O (stereo not shown) [Compound 9]', 'IC50', '=', 39),
  ('O=C1OC(=O)C2C3CCC(O3)C12 (stereo not shown) [Compound 2, reference compound]', 'IC50', '>', 100),
  ('COc1cccc2c1C(=O)c1c(O)c3c(c(O)c1C2=O)C[C@@](O)(C(=O)CO)C[C@@H]3O[C@H]1C[C@H](N)[C@H](O)[C@H](C)O1 [Doxorubicin, doxorubicin]', 'IC50', '=', 14.3),
  ('CC(C)=CCCC(C)=CCCC(C)=CCN1C(=O)C2C3CCC(O3)C2C1=O (stereo not shown) [Compound 18]', 'IC50', '=', 79.8);
